Tested on: TYKNU
Assay: fractional viability relative to vehicle; higher = less growth inhibition
Settings: 2uM; 72 h; genotype: DNM1L knockout (sgDNM1L #1)
Over roughly 2,000 compounds, “fractional viability relative to vehicle” has its median near 0.91; the lowest 2% begin near 0.045. This excerpt belongs to a sample that is enriched for the lowest values.
parameter_measured: fractional viability

Give one value of fractional viability per listed compound.
1. O=C(NCC1CCOCC1)c1cnc(Nc2ccc(Cl)cc2Cl)nc1C(F)(F)F
2. Cc1ccc(-n2nccn2)c(C(=O)N2CCN(c3nc4cc(Cl)ccc4o3)CC[C@H]2C)c1 [Suvorexant (MK-4305)]
3. CN(C)Cc1c[nH]c2ccccc12 [Gramine]

[1.03, 0.969, 0.908]

I'd like to know its fractional viability. The compound in question is CN[C@@H]1C[C@H]2O[C@@](C)([C@@H]1OC)n1c3ccccc3c3c4c(c5c6ccccc6n2c5c31)C(=O)NC4 [Staurosporine]
0.092

----------
Provide the reported fractional viability of each item.
System: TYKNU
Assay: fractional viability relative to vehicle; higher = less growth inhibition
Conditions: 10uM; 72 h; genotype: DNM1L knockout (sgDNM1L #1)
The full ranking holds about 2,000 compounds; the median of “fractional viability relative to vehicle” is about 0.91, and the lowest 2% start at about 0.045. The full list was thinned out, with the lowest values kept by preference.
Answers are plain numbers.

O=[N+]([O-])c1ncc[nH]1 [Azomycin] = 0.757
CCOc1ccccc1-n1c(C(C)N2CCN(C(=O)COc3ccc(Cl)cc3)CC2)nc2ccccc2c1=O (stereo not given) [Erastin] = 0.0411
C[C@](O)(COc1ccc(C#N)cc1)C(=O)Nc1ccc(C#N)c(C(F)(F)F)c1 = 0.879
Cc1cccc([C@H](C)c2c[nH]cn2)c1C [Dexmedetomidine] = 0.8
Cc1ccccc1-n1c(Cn2ncc3c(N)ncnc32)nc2cccc(C)c2c1=O = 0.731

Give one value of fractional viability per listed molecule.
1. Cc1sc2c(c1C)C(c1ccc(Cl)cc1)=N[C@@H](CC(=O)OC(C)(C)C)c1nnc(C)n1-2
2. Cc1cccc(C)c1NC(=O)CN1CCCC1=O [Nefiracetam]

1: 0.278; 2: 1.02

----------
System: TYKNU
Assay: fractional viability relative to vehicle; higher = less growth inhibition
Settings: 2uM; 72 h; genotype: sgCTRLA1 (non-targeting control)
The full ranking holds about 2,000 compounds; the median of “fractional viability relative to vehicle” is about 0.91, and the lowest 2% start at about 0.045. Shown is part of a subset that was picked to be rich in the lowest values.
parameter_measured: fractional viability
Give bare numbers.

Some solved cases for reference:
C[C@](O)(COc1ccc(C#N)cc1)C(=O)Nc1ccc(C#N)c(C(F)(F)F)c1 = 1.13
Cc1cccc(C)c1NC(=O)CN1CCCC1=O = 1.08
CC(C)(C)c1cc(C=C(C#N)C#N)cc(Br)c1O = 1.08
COc1cc(C)[nH]c(=O)c1CNC(=O)c1c(C)n([C@H](C)C2CCOCC2)c2ccccc12 = 0.972
C#C[C@]1(O)C=C[C@H]2[C@@H]3CCC4=CC(=O)CC[C@@H]4[C@H]3CC[C@@]21CC = 1.04

We next turn to a different compound, shown below.
I'd like to know its fractional viability. The compound in question is C[C@@H]1[C@H](O)[C@@H](C)/C=C/C=C/CC/C=C/C=C/C=C/C=C/[C@H](O[C@H]2O[C@@H](C)[C@H](O)[C@@H](N)[C@H]2O)C[C@@H]2O[C@](O)(C[C@@H](O)[C@H](O)CC[C@@H](O)C[C@@H](O)C[C@@H](O)CC(=O)O[C@H]1C)C[C@H](O)[C@H]2C(=O)O
1.11

----------
Provide the reported fractional viability of each item.
Tested on: TYKNU
Experiment: fractional viability relative to vehicle; TYKNU is a high-grade serous ovarian cancer line; higher = less growth inhibition
Settings: 10uM; 72 h; genotype: DNM1L knockout (sgDNM1L #1)
Over roughly 2,000 compounds, “fractional viability relative to vehicle” has its median near 0.91; the lowest 2% begin near 0.045. The sample as a whole holds a higher share of the lowest values than the screen did.
Numbers only.

O=C(O[C@H]1C[C@H]2CC[C@@H](C1)[N+]21CCCC1)C(O)(c1ccccc1)c1ccccc1 [Trospium chloride] = 0.908
C[C@@H]1O[C@@H](O[C@H]2C[C@@H](O)[C@]3(CO)[C@H]4[C@H](O)C[C@]5(C)[C@@H](C6=CC(=O)OC6)CC[C@]5(O)[C@@H]4CC[C@]3(O)C2)[C@H](O)[C@H](O)[C@H]1O [Ouabain] = 0.0346
Cc1sc2c(c1C)C(c1ccc(Cl)cc1)=N[C@@H](CC(N)=O)c1nnc(C)n1-2 = 0.319
O=C1CCC[C@@H]2[C@H]3CCCN4CCC[C@@H](CN12)[C@@H]34 [(+)-Matrine] = 0.795

Give one value of fractional viability per listed compound.
1. CC(C)N(CCNC(=O)CN1CCCC1=O)C(C)C [Pramiracetam]
2. CC(=O)Nc1ccc(Cc2ccc(NC(C)=O)cc2)cc1
3. c1ccc([C@@H]2C[C@H]2NC2CCNCC2)cc1
4. CN(C)Cc1c[nH]c2ccccc12 [Gramine]

1. 0.882
2. 0.747
3. 0.712
4. 0.859
